Target: T1, cMet-Fc fusion protein (extracellular domain of the cMet receptor expressed as an Fc-fusion protein) (human, UniProt P08581 25-932)
T1 construct: extracellular domain; also called soluble cMet-Fc-fusion protein; soluble cMet receptor; not shown: Fc part
T1 sequence (P08581 25-932): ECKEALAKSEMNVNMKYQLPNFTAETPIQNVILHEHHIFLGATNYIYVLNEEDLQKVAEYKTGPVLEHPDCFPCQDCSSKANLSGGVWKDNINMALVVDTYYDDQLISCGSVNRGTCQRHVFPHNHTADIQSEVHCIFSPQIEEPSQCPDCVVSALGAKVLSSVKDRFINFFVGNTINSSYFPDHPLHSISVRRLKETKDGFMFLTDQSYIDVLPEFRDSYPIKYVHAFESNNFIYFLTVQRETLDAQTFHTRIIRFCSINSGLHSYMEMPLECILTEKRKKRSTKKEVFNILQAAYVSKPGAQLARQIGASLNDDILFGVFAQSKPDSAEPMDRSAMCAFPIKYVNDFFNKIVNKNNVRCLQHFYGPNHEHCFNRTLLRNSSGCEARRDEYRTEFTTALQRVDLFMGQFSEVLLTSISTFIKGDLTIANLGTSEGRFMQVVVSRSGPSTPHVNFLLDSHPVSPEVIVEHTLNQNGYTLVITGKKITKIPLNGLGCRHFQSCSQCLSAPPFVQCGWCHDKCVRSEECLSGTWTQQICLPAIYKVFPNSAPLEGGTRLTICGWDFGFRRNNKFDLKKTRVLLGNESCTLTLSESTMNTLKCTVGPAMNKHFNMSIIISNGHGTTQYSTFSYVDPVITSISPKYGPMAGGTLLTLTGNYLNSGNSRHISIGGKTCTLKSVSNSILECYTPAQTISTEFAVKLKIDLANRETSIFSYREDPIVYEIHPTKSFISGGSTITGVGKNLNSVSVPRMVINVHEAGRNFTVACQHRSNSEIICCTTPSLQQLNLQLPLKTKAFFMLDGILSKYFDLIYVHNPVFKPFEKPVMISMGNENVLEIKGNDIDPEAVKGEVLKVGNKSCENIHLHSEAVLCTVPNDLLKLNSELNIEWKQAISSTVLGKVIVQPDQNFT
Assay: phage ELISA on cMet-Fc, competitor HGF 500 ng/mL
Please respond with reported % of binding in the absence of HGF for every item in the list.
Quick reminder: number only, in %, skip the unit.

Entry under test: AGGFACGPPWDICWMFGT [573-F04 peptide-displaying phage (SEQ ID NO: 011)] . Its % of binding in the absence of HGF was 71

Entry under test: AQGGRYPFYDTDWFKWEMYVL [527-A10 peptide-displaying phage (SEQ ID NO: 496)] . Its % of binding in the absence of HGF was 78

Entry under test: GDYYQCQFSKDMYSERCWPYDP [316-F08 peptide-displaying phage (SEQ ID NO: 397)] . Its % of binding in the absence of HGF was 38

Entry under test: GSQQICDRKEYRFQACLSDAP [443-H10 peptide-displaying phage (SEQ ID NO: 371)] . Its % of binding in the absence of HGF was 143

Entry under test: GSSQICAVYLDDTHNCERHAP [465-A03 peptide-displaying phage (SEQ ID NO: 373)] . Its % of binding in the absence of HGF was 17

Entry under test: AQPYYELQDADMLLVVALLSTG [94-F07 peptide-displaying phage (SEQ ID NO: 458)] . Its % of binding in the absence of HGF was 104

Entry under test: AGYWHCKGPPHFACEFHGT [331-D03 peptide-displaying phage (SEQ ID NO: 077)] . Its % of binding in the absence of HGF was 55

Entry under test: AGKTVCQKWESVCSGMGT [465-C11 peptide-displaying phage (SEQ ID NO: 038)] . Its % of binding in the absence of HGF was 4

Entry under test: AQIQGIQKTEQGEFYWFNWFPA [528-F05 peptide-displaying phage (SEQ ID NO: 450)] . Its % of binding in the absence of HGF was 81

Entry under test: AQHQYGQMMVLHIQYDMGEFIP [117-F08 peptide-displaying phage (SEQ ID NO: 462)] . Its % of binding in the absence of HGF was 270

Entry under test: GSELFCFYHHQGYEGCDVLAP [465-B07 peptide-displaying phage (SEQ ID NO: 385)] . Its % of binding in the absence of HGF was 79

Entry under test: AQHMDPAEWDWFIRIYSPVVNP [149-E06 peptide-displaying phage (SEQ ID NO: 487)] . Its % of binding in the absence of HGF was 86

Entry under test: AGHTICQHKALGCPANGT [465-C07 peptide-displaying phage (SEQ ID NO: 041)] . Its % of binding in the absence of HGF was 138

Entry under test: AQFSGLVMYGRTHEVQWTFGSM [94-G02 peptide-displaying phage (SEQ ID NO: 477)] . Its % of binding in the absence of HGF was 76

Entry under test: AGYWDCKGPPHFFCEWHGT [552-G11 peptide-displaying phage (SEQ ID NO: 080)] . Its % of binding in the absence of HGF was 41

Entry under test: GSFTACNKTSTTRQPCNPYAP [451-B12 peptide-displaying phage (SEQ ID NO: 384)] . Its % of binding in the absence of HGF was 27

Entry under test: AGNWICTGPPSFGCWYHGT [331-G06 peptide-displaying phage (SEQ ID NO: 078)] . Its % of binding in the absence of HGF was 51

Entry under test: AGWFECEFGFWGCNWLGT [437-A09 peptide-displaying phage (SEQ ID NO: 018)] . Its % of binding in the absence of HGF was 78

Entry under test: GDPDECQLNRETFEVWCPWHDP [547-C09 peptide-displaying phage (SEQ ID NO: 401)] . Its % of binding in the absence of HGF was 32

Entry under test: AQWGAVDNDWYDWEMEQIWMFE [527-E08 peptide-displaying phage (SEQ ID NO: 491)] . Its % of binding in the absence of HGF was 95

Entry under test: AGFVNCKGPPTFECILTGT [538-F08 peptide-displaying phage (SEQ ID NO: 057)] . Its % of binding in the absence of HGF was 43

Entry under test: AQFPLEFDVPNFSYHWLVSFNP [118-C07 peptide-displaying phage (SEQ ID NO: 460)] . Its % of binding in the absence of HGF was 84

Entry under test: AQDNTADQMFNGFHVLAMYMV [117-E09 peptide-displaying phage (SEQ ID NO: 481)] . Its % of binding in the absence of HGF was 102

Entry under test: GSDMNCTVLAQDQIFCFREAP [451-C06 peptide-displaying phage (SEQ ID NO: 386)] . Its % of binding in the absence of HGF was 86

Entry under test: GDSYNCSWDSKTFEVTCLYADP [546-B01 peptide-displaying phage (SEQ ID NO: 393)] . Its % of binding in the absence of HGF was 77

Entry under test: AGETFCSGWPTFECMQWGT [547-H03 peptide-displaying phage (SEQ ID NO: 095)] . Its % of binding in the absence of HGF was 53

Entry under test: AGSWHCAGPPSFECWEFGT [331-G04 peptide-displaying phage (SEQ ID NO: 055)] . Its % of binding in the absence of HGF was 36

Entry under test: AQHWDYDSGSDFWFPVFFLEHH [79-B02 peptide-displaying phage (SEQ ID NO: 475)] . Its % of binding in the absence of HGF was 86

Entry under test: AQEWQTWTWNMIEVISENKTP [117-F03 peptide-displaying phage (SEQ ID NO: 468)] . Its % of binding in the absence of HGF was 93
